# experimental-target: Bcl-2-like protein 10 (Homo sapiens) (UniProt Q9HD36)
# Sequence (Q9HD36 whole entry, looked up): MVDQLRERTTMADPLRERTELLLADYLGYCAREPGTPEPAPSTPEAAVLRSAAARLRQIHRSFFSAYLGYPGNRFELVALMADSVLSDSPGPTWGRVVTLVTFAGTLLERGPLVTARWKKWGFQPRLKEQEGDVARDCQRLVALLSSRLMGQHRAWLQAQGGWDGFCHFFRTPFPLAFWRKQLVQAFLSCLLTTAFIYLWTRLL
# test-method-notes: TR3 peptide-Bcl-B binding displacers, biochemical primary FP assay, phenotype converters (AID 1240);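 note: 0% = Bcl-B with tracer peptide and DMSO and 100% = tracer peptide lacking Bcl-B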
# setup-conditions: GST-Bcl-B / FITC-TR3 peptide fluorescence polarization; stronger effect = higher value; compound at 3.75 mg/L
About 800 (1.6%) of roughly 50,000 compounds showed an effect of 50% or more. The sample holds strong results, similar compounds and a random draw of the others, so the mix is not that of the screen.
observable: displacement (%)
One number for each entry, in %.

{"molecule": "CN(C)c1ccc(/C=C(/C#N)C(=O)Nc2cccc(Br)c2)cc1", "result-units": "%", "displacement": 53.8}
{"molecule": "CC(=O)c1cccc(NC(=O)/C(=C\\c2ccc(Br)cc2)NC(=O)c2ccc(C)cc2)c1", "result-units": "%", "displacement": 2.4}
{"molecule": "C=CCOc1ccc(/C=C2/C(=O)NN(c3ccc(C)c(Cl)c3)C2=O)cc1OC", "result-units": "%", "displacement": 15.5}

Batch: displacement for all items listed.
1. O=C(Nc1ccccc1I)C1CC(=O)N(c2ccc(Br)cc2)C1 (stereo unspecified)
2. CC(Cc1ccccc1)NC(=O)CC(c1ccccc1)c1ccc(O)c(Cl)c1Cl (stereo unspecified)
3. COc1ccc(CCC(=O)Nc2cc(Cl)cc(Cl)c2)cc1
4. O=C1NC(=O)/C(=C\c2ccc(O)cc2)S1
5. COc1ccc(CC(=O)N=Nc2c(O)n(CN3CCN(C)CC3)c3ccccc23)cc1
6. CSc1ccc(/C=C(\NC(=O)c2ccc(C)cc2)C(=O)Nc2cccc(C)c2)cc1
7. COc1c(Cl)cc(C(=O)Nc2c(C)cccc2C)cc1Cl
8. Cc1[nH]c2ccccc2c1/C=C(/C#N)C(=O)Nc1cccc(Br)c1

# output
1: -26; 2: 2.6; 3: 0.3; 4: 1.8; 5: -3; 6: -2.7; 7: 6.7; 8: -17.5

* * *

# experimental-target: Bcl-2-like protein 10 (Homo sapiens) (UniProt Q9HD36)
# test-method-notes: TR3 peptide-Bcl-B binding displacers, biochemical primary FP assay, phenotype converters (AID 1240);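 note: 0% = Bcl-B with tracer peptide and DMSO and 100% = tracer peptide lacking Bcl-B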
# setup-conditions: GST-Bcl-B / FITC-TR3 peptide fluorescence polarization; stronger effect = higher value; compound at 3.75 mg/L
The whole screen tested about 50,000 compounds, of which about 800 (1.6%) showed an effect of 50% or more. The list comes from a sample in which strong results are over-represented; it also holds close analogues and randomly drawn compounds.
I'd be grateful if you could share measured displacement for these entries.
One number for each entry, in %.

{"item-smiles": "CC(C)(C)/C(O)=C/c1nc2cc([N+](=O)[O-])ccc2[nH]c1=O", "displacement, %": 0.3}
{"item-smiles": "COc1ccc(C(=O)N2CCCc3ccccc32)cc1OC", "displacement, %": -3.3}
{"item-smiles": "CCn1c(O)c(/C=N/N=C/c2ccccc2)c2ccc(C3=NNC(=O)CC3)cc21", "displacement, %": 119}

Batch: displacement for all items listed.
1. Cc1ccc(-c2nc3ccccc3[nH]2)s1
2. O=C(Nc1ccccc1Cl)c1ccc2ccccc2n1
3. CCOc1cc(-c2ccc(OC)cc2)[o+]c2c1ccc1ccccc12
4. Cc1cc(-c2ccccc2)sc1/C(O)=C/c1nc2ccccc2[nH]c1=O
5. Cc1nc(C)c(/C(O)=C/c2nc3ccccc3[nH]c2=O)s1
6. CCn1c(O)c(/C=N/N=C2CCCC2)c2ccc(C3=NNC(=O)CC3)cc21
7. Cc1ccccc1NC(=O)c1ccc2ccccc2n1

# output
0.7
1
6.2
112
61.6
45.9
-3.8

# input Name the recorded displacement of the molecule listed here: O=C(Nc1ccccc1[N+](=O)[O-])c1ccc2ccccc2n1
# output 89.3

* * *

I'd be grateful if you could share measured displacement for these entries.
# experimental-target: Bcl-2-like protein 10 (Homo sapiens)
# test-method-notes: TR3 peptide-Bcl-B binding displacers, biochemical primary FP assay, phenotype converters (AID 1240);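 note: 0% = Bcl-B with tracer peptide and DMSO and 100% = tracer peptide lacking Bcl-B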
# setup-conditions: GST-Bcl-B / FITC-TR3 peptide fluorescence polarization; stronger effect = higher value; compound at 3.75 mg/L
About 800 (1.6%) of roughly 50,000 compounds showed an effect of 50% or more. The sample holds strong results, similar compounds and a random draw of the others, so the mix is not that of the screen.
Answers are plain numbers, in %.

Example cases with answers are listed next.
{"compound": "CC1CC(C)CN(S(=O)(=O)c2ccc(F)cc2)C1 (centres undefined)", "measured-number": -9}
{"compound": "N/C(=N\\c1nc2ccccc2o1)NC(=O)c1ccc(F)cc1", "measured-number": 1.4}

Batch: displacement for all items listed.
1. CCOc1ccc(C=Nc2ccc3c(c2)nc(C)n3C)cc1
2. COc1ccc(N(CC(=O)NCCc2ccccc2)S(C)(=O)=O)c(OC)c1
3. CCOC(=O)C1=C(O)/C(=C\c2ccc(OC)cc2)N=C1C
4. Cc1ccc(C(=O)NCCCN2CCOCC2)c2ccccc12

# output
1. 6.5
2. 3.4
3. 4.4
4. -1.8

* * *

# experimental-target: Bcl-2-like protein 10 (Homo sapiens) (UniProt Q9HD36)
# test-method-notes: TR3 peptide-Bcl-B binding displacers, biochemical primary FP assay, phenotype converters (AID 1240);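 note: 0% = Bcl-B with tracer peptide and DMSO and 100% = tracer peptide lacking Bcl-B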
# setup-conditions: GST-Bcl-B / FITC-TR3 peptide fluorescence polarization; stronger effect = higher value; compound at 3.75 mg/L
The whole screen tested about 50,000 compounds, of which about 800 (1.6%) showed an effect of 50% or more. Only a selection was taken, and strong results are over-represented in it overall.
observable: displacement (%)
One number for each entry, in %.

{"molecule": "COc1ccc(/C=C2\\SC(=S)N(CCCC(=O)Nc3ncc(Cc4cccc([N+](=O)[O-])c4)s3)C2=O)cc1OC", "experimental-target": "Bcl-2-like protein 10 (Homo sapiens) (UniProt Q9HD36)", "measured-number": 59}
{"molecule": "COc1ccc(Cl)cc1N(CC(=O)N1CCCCC1)S(=O)(=O)c1ccc(C)c([N+](=O)[O-])c1", "experimental-target": "Bcl-2-like protein 10 (Homo sapiens) (UniProt Q9HD36)", "measured-number": 2.3}
{"molecule": "CCOC(=O)N1CCN(C(=O)Nc2ccc3nc4c5ccccc5c5ccccc5c4nc3c2)CC1", "experimental-target": "Bcl-2-like protein 10 (Homo sapiens) (UniProt Q9HD36)", "measured-number": 22.4}
{"molecule": "Cc1ccccc1N1C(=O)c2ccc(C(=O)O)cc2C1=O", "experimental-target": "Bcl-2-like protein 10 (Homo sapiens) (UniProt Q9HD36)", "measured-number": -3.3}
{"molecule": "O=C(Nc1nc(-c2ccc(Cl)cc2)cs1)c1ccc(S(=O)(=O)N2CCCCC2)cc1", "experimental-target": "Bcl-2-like protein 10 (Homo sapiens) (UniProt Q9HD36)", "measured-number": -9.5}
{"molecule": "Cc1cc(C=C2C(=O)NC(=S)NC2=O)c(C)n1-c1ccc(N2CCOCC2)cc1", "experimental-target": "Bcl-2-like protein 10 (Homo sapiens) (UniProt Q9HD36)", "measured-number": 22.3}
{"molecule": "CCCCN1C(=O)/C(=C\\c2ccc(N(CC)CC)cc2)SC1=S", "experimental-target": "Bcl-2-like protein 10 (Homo sapiens) (UniProt Q9HD36)", "measured-number": -18.9}
{"molecule": "Cc1ccc(-c2nc(N/N=C/c3ccccc3O)c3ccccc3n2)cc1", "experimental-target": "Bcl-2-like protein 10 (Homo sapiens) (UniProt Q9HD36)", "measured-number": 76.2}

Batch: displacement for all items listed.
1. O=C(O)c1cccc(-c2ccc(C=C3C(=O)c4ccccc4C3=O)o2)c1
2. COc1cc(/C=C/C(=O)c2c(C)cc(C)[nH]c2=O)cc(OC)c1OC
3. Cc1cc(/C=C2/NC(=O)NC2=O)c(C)n1-c1ccc(N2CCOCC2)cc1
4. O=C1N=C(N2CCOCC2)S/C1=C/c1ccc(Cl)cc1
5. O=C(/C=C/c1ccc(-c2ccc(Cl)cc2Cl)o1)Nc1ccc(N2CCOCC2)cc1
6. O=C(O)c1ccc(Cl)c(S(=O)(=O)N2CCCC2)c1

# output
1: -2.7; 2: 8.5; 3: -5.1; 4: -0.1; 5: 83; 6: 5.8

Batch: displacement for all items listed.
1. CC1=C(C(=O)Nc2ccccc2C)C(c2ccc(F)cc2)NC(=O)N1 (stereo not drawn)
2. Cc1ccc2[nH]c(C)c(CN(C)Cc3ccccc3)c(=O)c2c1

# output
[16.2, -15.8]

* * *

I'd be grateful if you could share measured displacement for these entries.
# experimental-target: Bcl-2-like protein 10 (Homo sapiens)
# test-method-notes: TR3 peptide-Bcl-B binding displacers, biochemical primary FP assay, phenotype converters (AID 1240);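 note: 0% = Bcl-B with tracer peptide and DMSO and 100% = tracer peptide lacking Bcl-B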
# setup-conditions: GST-Bcl-B / FITC-TR3 peptide fluorescence polarization; stronger effect = higher value; compound at 3.75 mg/L
Screen size: about 50,000 compounds; about 800 (1.6%) showed an effect of 50% or more. The entries come from a sample that favours strong results as a whole.
Numbers only, in %.

{"compound": "CCOC(=O)C12CC3CC(CC(C3)C1)C2", "observable": "displacement", "result-units": "%", "measured-number": -12.2}

Batch: displacement for all items listed.
1. O=C(Nc1ccc(NC(=O)c2ccc(-c3ccc(Cl)cc3Cl)o2)cc1)c1ccccc1
2. Cc1ccccc1C(=O)Nc1cccc(NC(=O)c2ccc(-c3cccc(Cl)c3)o2)c1
3. O=C(Nc1cccc2nsnc12)c1ccc(Br)o1
4. O=C(Nc1cccc(Oc2ccc3c(c2)C(=O)N(c2ccccc2)C3=O)c1)c1cccc([N+](=O)[O-])c1

# output
83.5
0.6
69.6
12.7
